# SUBJECT_OF_TEST: human recombinant MC1R (CHO-K1 stable cell line, GenScript) (human, UniProt Q01726 1-317)
# Sequence (Q01726 whole entry): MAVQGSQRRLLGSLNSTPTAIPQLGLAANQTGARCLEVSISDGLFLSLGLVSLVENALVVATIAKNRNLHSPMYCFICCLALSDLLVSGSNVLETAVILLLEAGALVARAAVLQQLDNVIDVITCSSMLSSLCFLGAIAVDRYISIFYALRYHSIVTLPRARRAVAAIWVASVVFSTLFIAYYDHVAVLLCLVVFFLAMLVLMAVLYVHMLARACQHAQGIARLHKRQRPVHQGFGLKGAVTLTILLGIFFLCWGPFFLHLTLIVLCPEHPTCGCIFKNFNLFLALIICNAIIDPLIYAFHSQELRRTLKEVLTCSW
# ASSAY_PROCEDURE: cell-based or functional assay
Starred links: 1 amine or outer side, 2 acyl side, 3 side chain; linkers in the order of their positions; H or OH if unused. Positions of bridges follow the written chain, without caps; N, C: chain ends. Non-standard residues stand in square brackets, D forms with d. Phe(OCH3) = O-methyl-tyrosine, COc1ccc(C[C@H](N[*:1])C(=O)[*:2])cc1; Lys(N3) = [N-]=[N+]=NCCCC[C@H](N)C(=O)O; Orn(N3) = [N-]=[N+]=NCCC[C@H](N)C(=O)O; dNMeF = CN[C@H](Cc1ccccc1)C(=O)O; Hpra = C#CCC[C@H](N)C(=O)O; Nle = CCCC[C@H](N)C(=O)O; Pra = C#CC[C@H](N)C(=O)O
READOUT_TYPE: MC1R IC50 (nM)

(1) Ac-SYSMEH[dNMeF]RWGKPV-NH2 [KR-025]
(2) Ac-[Nle][Lys(N3)][Phe(OCH3)][dF]RW[Pra]K-NH2 (triazole 2-7; not fully specified; printed as Ac-Nle-[Lys(N3)-Phe(OCH3)-DPhe-Arg-Trp-Pra]-Lys-NH2) [KR-061]
(3) Ac-[Nle][Orn(N3)]H[dF]RW[Hpra]K-NH2 (triazole 2-7; not fully specified; printed as Ac-Nle-[Orn(N3)-His-DPhe-Arg-Trp-Hpra]-Lys-NH2) [KR-068]
Qu. # rank_down: sort by MC1R IC50, max first Reply with the labels, ordered as the question asks.
Ans. 2, 1, 3
